Tested on: male cryopreserved cynomolgus monkey hepatocytes
Assay: In vitro metabolism of Compound 1 in monkey cryopreserved hepatocytes; note: key: ND Not detected; trace: Trace: observed by HPLC/MS measurements only; + Minor as assessed by HPLC/UV measurements; ++ moderate as assessed by HPLC/UV measurements; +++ major as assessed by HPLC/UV measurements; * m/z 593 and m/z 505 co-eluted in rabbit hepatocytes; ** m/z 591c and m/z 593 were merged in human hepatocytes and Hepatopack; *** m/z 607 and m/z 751b were merged in rabbit hepatocytes
Assay type: in vitro ADME
Details: monkey cryopreserved hepatocytes; HPLC/UV/MS
endpoint_name: Relative abundance of metabolite of Compound 1, Monkey

Problem: I would be grateful if you could share the reported Relative abundance of metabolite of Compound 1, Monkey for CC1(c2ccc(Cl)cn2)Oc2cccc(C3CCN(Cc4nc5ccc(C(=O)OC6OC(C(=O)O)C(O)C(O)C6O)cc5n4CC4CCO4)CC3)c2O1 (stereo not shown) [Metabolite 751b] .
Result: +++

Problem: I would be grateful if you could share the reported Relative abundance of metabolite of Compound 1, Monkey for O=C(O)c1ccc2nc(CN3CCC(c4cccc(O)c4O)CC3)n(C[C@@H]3CCO3)c2c1 [Metabolite 438] .
Result: trace

Problem: I would be grateful if you could share the reported Relative abundance of metabolite of Compound 1, Monkey for C[C@]1(c2ccc(Cl)cn2)Oc2cccc(C3CCNCC3)c2O1 [Metabolite 331] .
Result: +

Problem: I would be grateful if you could share the reported Relative abundance of metabolite of Compound 1, Monkey for C[C@]1(c2ccc(Cl)cn2)Oc2cccc(-c3cc[n+](Cc4nc5ccc(C(=O)O)cc5n4C[C@@H]4CCO4)cc3)c2O1 [Metabolite 569] .
Result: trace

Where do the numbers come from? From patent US20220193063A1.
